Origin of values: ChEMBL document CHEMBL4033699

test: Inhibition of F-actin activated rabbit full length myosin 2 ATPase activity after 1 hr by CytoPhos reagent based assay; design: species or system Oryctolagus cuniculus
pIC50: −log10 of the molar value.
measured-property: pIC50

In [3]: df
Out[3]:
                                smiles_repr  measured
0  O=C1c2cc3ccccc3cc2N=C2N(c3ccccc3)CC[C@@]12O      5.10

(1) Cc1ccc2c(c1)C(=O)[C@]1(O)CCN(c3ccccc3)C1=N2
(2) C=CCN1CCc2cc3c(cc21)N=C1N(c2ccccc2)CC[C@@]1(O)C3=O
(3) O=C1c2cc3c(cc2N=C2N(c4ccccc4)CC[C@@]12O)NCC3
Given 3 compounds, produce a descending ranking by pIC50. Show the ranking through the labels, in the order asked for.
1, 2, 3
(1: 5.99, 2: 5.07, 3: 4.84)

* * *

experiment: Solubility of the compound in Tris-HCl at pH 7.5; type: physicochemical; details: Tris-HCl buffer
Property: solubility; scope: individual compounds

Solved entries:
In [3]: df
Out[3]:
                                smiles_repr  measured_property  measured
0  O=C1c2cc3cc[nH]c3cc2N=C2N(c3ccccc3)CC[C@@]12O         solubility   < 40 µM
1  C=CCN1CCc2cc3c(cc21)N=C1N(c2ccccc2)CC[C@@]1(O)C3=O         solubility   < 40 µM
2  O=C1c2cc3c(cc2N=C2N(c4ccccc4)CC[C@@]12O)NCC3         solubility   < 50 µM
3  Cc1ccc2c(c1)C(=O)[C@]1(O)CCN(c3ccccc3)C1=N2         solubility  < 100 µM

Next item in the queue.
Name the recorded solubility for "O=C1c2cc3ccccc3cc2N=C2N(c3ccccc3)CC[C@@]12O" .
< 15 µM
